B1: library; a variant is named by its letters at N, in order (parent)
chain: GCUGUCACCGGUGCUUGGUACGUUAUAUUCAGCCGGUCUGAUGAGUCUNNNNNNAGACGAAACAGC

- Variants of: B1
- protocol: normalized RNA/DNA level without ligand (relative to sTRSVctl = 100) (log10 (% of sTRSVctl)); HEK293T overexpressing SLC46A1; higher = less ribozyme self-cleavage, higher mRNA level
- assay_setup: without (6R,S)-folinic acid; ligand present: no
MET means recorded normalized RNA/DNA level without ligand (log10) is 2 or above; NOT MET means it is below 2.

- var: "CCAGCU"
  class_name: "MET"
- var: "AUAUGG"
  class_name: "NOT MET"
- var: "AUGAAA"
  class_name: "NOT MET"
- var: "AUUGUG"
  class_name: "NOT MET"
- var: "GGCAAA"
  class_name: "MET"
- var: "UUACCU"
  class_name: "MET"
- var: "UACGAG"
  class_name: "NOT MET"
- var: "UGUCGG"
  class_name: "NOT MET"
- var: "UUGCGC"
  class_name: "MET"
- var: "AGCAGG"
  class_name: "NOT MET"
